target: Itk(h) (Homo sapiens, UniProt Q08881)
Construct: purchased Eurofins (KinaseProfiler service)
Sequence (Q08881 whole entry): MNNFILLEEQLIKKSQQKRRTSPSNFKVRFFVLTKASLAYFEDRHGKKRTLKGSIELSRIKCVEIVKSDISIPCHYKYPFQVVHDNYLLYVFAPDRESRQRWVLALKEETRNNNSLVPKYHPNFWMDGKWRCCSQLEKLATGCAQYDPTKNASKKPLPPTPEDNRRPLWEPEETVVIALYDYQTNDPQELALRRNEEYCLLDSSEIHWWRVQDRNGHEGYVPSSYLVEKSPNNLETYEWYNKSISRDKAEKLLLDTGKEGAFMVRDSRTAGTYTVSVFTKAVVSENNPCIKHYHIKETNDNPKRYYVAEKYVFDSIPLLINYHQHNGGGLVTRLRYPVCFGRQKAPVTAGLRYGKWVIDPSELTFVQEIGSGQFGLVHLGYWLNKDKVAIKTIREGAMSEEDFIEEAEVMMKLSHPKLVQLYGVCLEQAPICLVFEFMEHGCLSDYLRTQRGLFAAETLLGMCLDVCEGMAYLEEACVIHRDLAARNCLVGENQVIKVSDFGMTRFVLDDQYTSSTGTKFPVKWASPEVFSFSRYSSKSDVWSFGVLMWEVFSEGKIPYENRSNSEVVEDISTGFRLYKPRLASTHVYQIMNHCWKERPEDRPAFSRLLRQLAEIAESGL
experiment description: Eurofins KinaseProfiler off-target kinase inhibition
Format: biochemical
experimental endpoint: IC50 (nM)
Use nM as the unit, but write only the number.

Fill in: IC50 of `c1cn2c(n1)c(Nc1ccc(N3CCOCC3)cc1)nc1ccc(-c3cn[nH]c3)cc12` is ___
1850

###

target: CYP1A2 (Homo sapiens)
Construct: human liver microsome working solution was prepared; from tissue; host or cells: human liver microsomes
Sequence (P05177 whole entry): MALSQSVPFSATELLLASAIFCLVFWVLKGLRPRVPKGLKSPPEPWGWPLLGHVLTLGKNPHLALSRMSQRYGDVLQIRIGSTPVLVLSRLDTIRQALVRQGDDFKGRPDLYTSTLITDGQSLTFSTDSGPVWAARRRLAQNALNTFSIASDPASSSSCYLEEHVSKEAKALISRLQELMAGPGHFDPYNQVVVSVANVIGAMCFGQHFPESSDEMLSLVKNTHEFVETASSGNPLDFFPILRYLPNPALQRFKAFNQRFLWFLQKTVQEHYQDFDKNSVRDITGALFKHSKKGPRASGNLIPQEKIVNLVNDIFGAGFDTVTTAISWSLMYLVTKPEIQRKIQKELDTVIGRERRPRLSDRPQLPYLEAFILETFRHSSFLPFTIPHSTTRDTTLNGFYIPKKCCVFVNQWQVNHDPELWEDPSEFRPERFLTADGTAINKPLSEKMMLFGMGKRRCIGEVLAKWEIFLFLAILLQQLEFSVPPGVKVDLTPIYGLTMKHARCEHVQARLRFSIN
experiment description: Inhibition of cytochrome P450 enzymes in human liver microsomes (LC-MS/MS)
Type: in vitro ADME
experimental endpoint: IC50

Fill in: IC50 of `c1cn2c(n1)c(Nc1ccc(N3CCOCC3)cc1)nc1ccc(-c3cn[nH]c3)cc12` is ___
> 50 nM

###

target: Lck(h)activated (Homo sapiens, UniProt P06239)
Construct: purchased Eurofins (KinaseProfiler service)
Sequence (P06239 whole entry): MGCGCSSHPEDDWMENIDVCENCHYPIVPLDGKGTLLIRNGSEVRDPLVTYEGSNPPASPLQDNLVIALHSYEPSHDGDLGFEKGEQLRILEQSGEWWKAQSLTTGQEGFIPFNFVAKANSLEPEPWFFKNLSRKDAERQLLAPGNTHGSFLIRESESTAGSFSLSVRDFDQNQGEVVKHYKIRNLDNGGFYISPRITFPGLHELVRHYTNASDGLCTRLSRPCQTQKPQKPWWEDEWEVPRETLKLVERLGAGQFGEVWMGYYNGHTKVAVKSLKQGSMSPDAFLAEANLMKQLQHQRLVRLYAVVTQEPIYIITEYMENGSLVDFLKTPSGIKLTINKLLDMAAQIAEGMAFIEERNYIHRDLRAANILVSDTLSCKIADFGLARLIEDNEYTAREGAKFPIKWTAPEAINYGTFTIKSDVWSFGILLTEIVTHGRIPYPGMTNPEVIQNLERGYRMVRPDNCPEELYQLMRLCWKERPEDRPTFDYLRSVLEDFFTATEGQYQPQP
experiment description: Eurofins KinaseProfiler off-target kinase inhibition
Assay type: biochemical
experimental endpoint: IC50 (nM)
Use nM as the unit, but write only the number.

Fill in: IC50 of `c1cn2c(n1)c(Nc1ccc(N3CCOCC3)cc1)nc1ccc(-c3cn[nH]c3)cc12` is ___
1310

###

Exercise: for every item that follows, state its recorded log10(IC50).
target: Syk kinase (Homo sapiens, UniProt P43405)
Construct: purchased Invitrogen PV3857
experiment description: In vitro inhibitory effect on Syk kinase (HTRF enzymatic experiment)
Type: biochemical
protocol conditions: ATP 2 μM, read-out: IC50 (nM) for inhibition of Syk enzyme
Lab note - IC50 converted to log10 from values in nM.

Fill in: log10(IC50) of `c1cn2c(n1)c(Nc1ccc(C3CCOCC3)cc1)nc1ccc(-c3cn[nH]c3)cc12` is ___
1.53

Continue with `c1cn2c(n1)c(Nc1ccc(N3CCOCC3)cc1)nc1ccc(-c3cn[nH]c3)cc12`
1.18

Continue with `c1cn2c(n1)c(Nc1ccc(N3CCOCC3)cc1)nc1ccc(-c3cc[nH]n3)cc12`
2.10

Continue with `c1cn2c(n1)c(Nc1ccc(N3CCN(C4COC4)CC3)cc1)nc1ccc(-c3cn[nH]c3)cc12`
1.23

Continue with `CC1(O)CCN(c2ccc(Nc3nc4ccc(-c5cn[nH]c5)cc4n4ccnc34)cc2)CC1`
1.48

Continue with `N=S1(=O)CCN(c2ccc(Nc3nc4ccc(-c5cn[nH]c5)cc4n4ccnc34)cc2)CC1`
1.36

Continue with `CN1CCCN(c2ccc(Nc3nc4ccc(-c5cn[nH]c5)cc4n4ccnc34)cc2)CC1`
1.53

Continue with `CC(=O)N=S1(=O)CCN(c2ccc(Nc3nc4ccc(-c5cn[nH]c5)cc4n4ccnc34)cc2)CC1`
1.04

Continue with `c1cn2c(n1)c(Nc1ccc(N3CCC4(CC3)COC4)cc1)nc1ccc(-c3cn[nH]c3)cc12`
2.50

Continue with `CN1CCN(c2ccc(Nc3nc4ccc(-c5cn[nH]c5)cc4n4ccnc34)cc2)CC1`
1.70

###

target: CHK1(h) (Homo sapiens)
Construct: purchased Eurofins (KinaseProfiler platform)
Sequence (O14757 whole entry): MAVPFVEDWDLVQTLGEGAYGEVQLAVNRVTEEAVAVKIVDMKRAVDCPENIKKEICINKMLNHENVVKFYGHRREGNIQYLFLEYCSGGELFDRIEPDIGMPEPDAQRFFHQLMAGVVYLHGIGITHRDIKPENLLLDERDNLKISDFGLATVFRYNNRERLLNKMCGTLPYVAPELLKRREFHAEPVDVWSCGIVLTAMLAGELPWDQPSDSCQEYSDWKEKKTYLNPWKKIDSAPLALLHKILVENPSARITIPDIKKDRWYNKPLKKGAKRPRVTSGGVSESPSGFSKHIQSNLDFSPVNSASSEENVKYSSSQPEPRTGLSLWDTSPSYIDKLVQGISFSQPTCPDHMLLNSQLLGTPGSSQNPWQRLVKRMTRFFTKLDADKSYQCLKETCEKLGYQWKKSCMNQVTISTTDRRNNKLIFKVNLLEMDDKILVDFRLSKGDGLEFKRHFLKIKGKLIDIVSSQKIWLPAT
experiment description: Eurofins KinaseProfiler off-target kinase inhibition
Assay type: biochemical
experimental endpoint: IC50

Fill in: IC50 of c1cn2c(n1)c(Nc1ccc(N3CCOCC3)cc1)nc1ccc(-c3cn[nH]c3)cc12 [Compound 1] is ___
> 10000 nM

Values were extracted from patent US12637469B2.
